Tested on: HBV viral production from HepAD38 cells
Assay: Activity of test compounds on viral production from HepAD38 cells (viral load by qPCR of HBV core sequence in supernatant)
Type: cell-based
Settings: Hepatitis B virus, 120 h, 5 days incubation, HBV DNA in supernatant by qPCR, top concentration 10 μM, read-out: Viral Load EC50 Activity range
Below: a set of entries, each annotated with reported EC50.

Known results for compounds:
# compound, tested.system, EC50
rows = [
    ("CN1C(C(=O)Nc2ccc(F)c(Cl)c2)CC(c2ccc(-c3cncn3C)s2)NS1(=O)=O (racemic)", "HBV viral production from HepAD38 cells", "< 1000 nM"),
    ("O=C(Nc1ccc(F)c(Cl)c1)[C@H]1C[C@@H](c2nccs2)NS(=O)(=O)N1CCOC(F)(F)F", "HBV viral production from HepAD38 cells", "> 5000 nM"),
    ("CN1C(C(=O)Nc2ccc(F)c(Cl)c2)CC(c2ccc(OC(F)(F)F)cc2)NS1(=O)=O (racemic)", "HBV viral production from HepAD38 cells", "< 1000 nM"),
    ("CN1[C@H](C(=O)Nc2ccc(F)c(Cl)c2)C[C@H](c2ccc(-c3c[nH]cn3)s2)NS1(=O)=O", "HBV viral production from HepAD38 cells", "< 1000 nM"),
    ("CN1[C@H](C(=O)Nc2ccc(F)c(Cl)c2)C[C@H](c2ncc(-c3cccs3)s2)NS1(=O)=O", "HBV viral production from HepAD38 cells", "< 1000 nM"),
]

Quick check: EC50 of CN1[C@@H](C(=O)Nc2ccc(F)c(Cl)c2)C[C@@H](c2ncc(-c3cn[nH]c3)s2)NS1(=O)=O ?
1000 to 5000 nM

Quick check: EC50 of [2H]C1[C@]([2H])(C(=O)Nc2ccc(F)c(Cl)c2)N(C([2H])([2H])[2H])S(=O)(=O)N[C@]1([2H])c1ccc(-c2cn(C([2H])([2H])[2H])cn2)s1 (stereo in doubt) ?
1000 to 5000 nM

---

Test system: HBV viral production from HepAD38 cells
Experiment: Activity of test compounds on viral production from HepAD38 cells (viral load by qPCR of HBV core sequence in supernatant)
Format: cell-based
Settings: Hepatitis B virus, 120 h, 5 days incubation, HBV DNA in supernatant by qPCR, top concentration 10 μM, read-out: Viral Load EC50 Activity range
Below: a set of entries, each annotated with reported EC50.

Known results for compounds:
# compound, EC50
records = [
    ("O=C(Nc1ccc(F)c(Cl)c1)[C@@H]1C[C@H](c2nccs2)NS(=O)(=O)N1CCc1c[nH]nn1 [HBV-CSU-092-ISO-I]", "< 1000 nM"),
    ("CN1C(C(=O)Nc2ccc(Cl)c(F)c2)CC(c2cccs2)NS1(=O)=O (stereo not shown) [HBV-CSU-018]", "1000 to 5000 nM"),
    ("CN1[C@@H](C(=O)Nc2ccc(F)c(Cl)c2)C[C@H](c2ccc(-c3cn(C)cn3)s2)NS1(=O)=O [HBV-CSU-266-Trans-ISO-I]", "< 1000 nM"),
    ("CN1C(C(=O)Nc2ccc(F)c(Cl)c2)CC(c2cc(-c3ccc(F)cc3)cs2)NS1(=O)=O (stereo not shown) [HBV-CSU-239]", "< 1000 nM"),
    ("CN(C(=O)C1CC(c2cccs2)NS(=O)(=O)N1C)c1ccc(F)c(Cl)c1 (stereo not shown) [HBV-CSU-015]", "1000 to 5000 nM"),
]

Quick check: EC50 of CN1[C@@H](C(=O)Nc2ccc(F)c(Cl)c2)C[C@@H](c2ncc(-c3ccc(F)cc3)s2)NS1(=O)=O [HBV-CSU-248-ISO-II] ?
> 5000 nM

Quick check: EC50 of Cc1cc([C@H]2C[C@@H](C(=O)Nc3ccc(F)c(Cl)c3)N(C)S(=O)(=O)N2)sc1-c1cnn(C)c1 (relative stereo) [HBV-CSU-300-ISO-I] ?
< 1000 nM
